Provenance of the data: patent US8993585B2

# assayed_system: PKC theta (Homo sapiens)
# Construct: purchased Upstate Biotechnologies, Temecula, CA 14-444
# Sequence (Q04759 whole entry): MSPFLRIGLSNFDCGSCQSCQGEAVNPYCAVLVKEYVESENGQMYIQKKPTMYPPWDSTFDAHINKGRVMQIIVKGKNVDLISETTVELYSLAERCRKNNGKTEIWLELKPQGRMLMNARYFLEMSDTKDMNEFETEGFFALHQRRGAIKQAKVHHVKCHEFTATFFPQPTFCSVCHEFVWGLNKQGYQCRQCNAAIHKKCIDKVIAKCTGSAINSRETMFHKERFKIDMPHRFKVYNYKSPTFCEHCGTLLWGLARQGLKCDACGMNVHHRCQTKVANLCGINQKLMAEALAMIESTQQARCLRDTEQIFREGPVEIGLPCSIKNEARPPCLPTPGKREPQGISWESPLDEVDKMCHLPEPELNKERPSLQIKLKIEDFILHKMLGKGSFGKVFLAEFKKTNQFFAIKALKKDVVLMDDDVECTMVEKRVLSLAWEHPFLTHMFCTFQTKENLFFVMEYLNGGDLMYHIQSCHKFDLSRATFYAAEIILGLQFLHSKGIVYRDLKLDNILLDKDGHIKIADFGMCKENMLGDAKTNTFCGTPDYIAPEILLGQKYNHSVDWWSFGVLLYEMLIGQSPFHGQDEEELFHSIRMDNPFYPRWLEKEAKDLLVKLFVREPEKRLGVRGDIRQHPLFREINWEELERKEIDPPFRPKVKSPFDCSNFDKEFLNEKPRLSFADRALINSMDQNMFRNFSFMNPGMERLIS
# assay: PKC assay, fluorescence polarization (Example 2), PKC theta
# Type: biochemical
# particulars: 5 μM ATP
# Description: The inhibition of PKC activity was measured by monitoring the production of phosphorylated peptide by fluorescence polarization at different concentrations of the inhibitor. Reactions were carried out in 96-well plate format with a total volume of 20 μL containing 20 mM HEPES, pH 7.4, 5 mM MgCl2, 0.2 mM CaCl2, 1 mM DTT, 0.02% Brij-35, 0.1 mg/mL phosphatidylserine, 0.02 mg/mL dioleoyl-sn-glycerol and 5 μM each of ATP and the peptide substrate. […]
pIC50: −log10 of the molar value.
outcome_measure: pIC50

{"columns": ["smiles_representation", "pIC50"],
 "data": [
  ["CCN1C(=O)C(C)(C)Oc2cc(Nc3ncc(F)c(NC4CC(C)(C)N(C)C(C)(C)C4)n3)ccc21", 8.05]
]}

P. CN1C(C)(C)CC(Nc2nc(Nc3ccc(OC(F)F)c(OC(F)F)c3)ncc2F)CC1(C)C
Q. CCOc1ccc(Nc2ncc(C(N)=O)c(NC3CC(C)(C)N(C)C(C)(C)C3)n2)cc1-n1nnnc1CC
R. N#Cc1cccc(Nc2ncc(F)c(NC3CCN(CCO)CC3)n2)c1
Form: Sort by [pIC50] Order [ ascending ] Answer format: the labels, ordered as requested.
R, P, Q
(R: 6.59, P: 8.18, Q: 8.49)
